- assay.method.text: solubility
- Type: physicochemical
- condition.set: water; read-out: Solubilité dans l'eau
readout.label: solubility

Provide measured solubility value, entry: COC1CC(CC(O)CCC(C)C=C(C)C(=O)O)OC2(OC(C)(C3CCC(C)(C4OC(C5OC(O)(CO)C(C)CC5C)CC4C)O3)CC2C)C1C (stereo not shown) [abiérixine monohydratée]
~440 mg/mL
